- TESTED ON: T1, human Claudin18.2 (CLDN18.2) (human, UniProt P56856 1-261)
- T1 construct: the cell line is named under assay; also called human Claudine18.2; hClaudin18.2
- ASSAY NAME: FACS on CHOK1-18.2 cells
EXPERIMENTAL READOUT: EC50 (nM)
Please reply with the bare figure in nM and do not write the unit itself.

Req: Return reported EC50; argument: chAb10 (antibody, V domains shown) VH: EVMLVESGGGLVKPGGSLKLSCAASGFTFSSYTMSWVRQTPEKRLEWVATISVIGGNTYYVDSVKGRFTISRDKAKNTLYLQMSSLRSEDTALYYCARLGQTQRNAMDYWGQGTSVTVSS VL: DIVMTQSPSSLSVSAGEKVTMSCKSSQSLLNSGNQKNYLAWYQQKPGQPPKLLIYGASTRESGVPDRFTGSGSGTDFTLTISSVQAEDLAVYYCQNDYSYPLTFGAGTKLELK
Resp: 2.27

# evaluate next
Req: Return reported EC50; argument: chAb05 (antibody, V domains shown) VH: DVKLVESGEDLVKPGGSLKLSCAASGFTFSNYAMSWVRQTPEKRLEWVAYVSSGGDYIYYADTVKGRFIISRDNARNTLYLQMNSLRSEDTAMYYCARVYFGNSLDYWGQGTTLTVSS VL: DIVMTQSPSSLTVTAGEKVTLSCKSSQSLLNGGNQKNYLTWYQQRPGQPPKLLIYWASTRESGVPDRFTGSGSGTDFTLIISSVQAEDLAVYYCQNDYYYPWTFGGGTKLEIK
Resp: 5
